Below is a list of entries, each paired with its recorded %Inh value.
- Test system: IRAK1;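 further: KINOMEscan kinase panel screen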
- cond: concentration: 1 μM, replicates: in singlicate; n = 1
endpoint_name: %Inh (%)

INSERT INTO assay_data (compound, display_unit, recorded_result) VALUES
  ('CCn1c(-c2cccnc2O)nc2cnccc21', '%', 0),
  ('Cl.c1ccc(-c2n[nH]cc2-c2ccnc(-c3ccc(CN4CCOCC4)cc3)c2)nc1', '%', 0),
  ('CN1C(=O)C(Nc2ccc(Cl)c(C(=O)O)c2)=C(c2ccc(Cl)cc2)C1=O', '%', 0),
  ('CC(C)(C)c1ccc(C(=O)Nc2cn3cc(Cl)ccc3n2)cc1', '%', 0),
  ('COc1ccccc1CNC(=O)c1cc(C(=O)c2ccccc2C)c[nH]1', '%', 33),
  ('Cc1cccc(-c2nc(C)cc(Nc3ccncc3)n2)n1', '%', 0),
  ('COc1ccc(Nc2nccc(-c3cccc(NC(=O)c4cc5cc(F)ccc5[nH]4)c3)n2)cc1', '%', 25),
  ('CC(C)(C)c1ccc(C(=O)Nc2cn3cc(-c4cccnc4)ccc3n2)cc1', '%', 41),
  ('O=S(=O)(c1ccc(-c2ccnc3[nH]ccc23)cc1)N1CCCC1', '%', 8),
  ('O=C(Nc1ccccc1)Nc1cccc(Oc2ccc3nccn3n2)c1', '%', 9),
  ('Fc1cc(Cl)ccc1Nc1ccnc2cc(-c3ccc(CN4CCCCC4)o3)ccc12', '%', 22),
  ('CC1=C(C(=O)Nc2cc3cn[nH]c3cc2F)C(c2ccc(C(F)(F)F)cc2)CC(=O)N1 (stereo not shown)', '%', 31),
  ('Cc1csc(-c2nc(Nc3ccncc3)c3ccccc3n2)n1', '%', 12),
  ('COc1ccc(CNC(=O)NC2CCN(c3ccnc(Nc4cc(OC)c(OC)c(OC)c4)n3)C2)cc1 (stereo not shown)', '%', 63),
  ('COc1ccc2nc(-c3cccc(C)n3)nc(Nc3ccncc3)c2c1', '%', 4),
  ('COc1cc2nccc(Nc3ccc(NC(=O)c4ccc(C)cc4)c(O)c3)c2cc1OC.Cl', '%', 0),
  ('COC(=O)c1c(-c2ccccc2)c2cc(OC)ccc2c(=O)n1Cc1ccccc1', '%', 11),
  ('O=C(Nc1n[nH]c2cc(-c3cccc(F)c3F)ccc12)C1CC1', '%', 0),
  ('O=c1cc(N2CCOCC2)nc2n(Cc3cccc(Cl)c3Cl)ccn12', '%', 0),
  ('Cc1c(O)cccc1Nc1ccnc2ccc(C(F)(F)F)cc12.Cl', '%', 0),
  ('Cc1cc(N2Cc3ccccc3C2)nc(Nc2ccc(S(=O)(=O)N3CCOCC3)cc2)n1.Cl', '%', 0),
  ('Cn1ccc2ncnc(Oc3ccc(NC(=O)Nc4ccccc4)cc3)c21', '%', 7),
  ('COc1cccc(-c2cc(-c3c[nH]nc3-c3ccccn3)ccn2)c1', '%', 13),
  ('CS(=O)(=O)c1ccc(-c2c(-c3ncn[nH]3)sc(N3CCOCC3)c2C#N)cc1', '%', 0),
  ('COc1ccc(Nc2nccc(NCCNC(=O)Nc3ccccc3F)n2)cc1', '%', 36),
  ('Cl.Oc1ccc(-c2nc(-c3ccccc3)[nH]c2-c2ccncc2)cc1', '%', 33),
  ('COc1cccc(NC(=O)NC2CCN(c3ccnc(Nc4ccc(F)cc4)n3)C2)c1 (stereo not shown)', '%', 12),
  ('O=C(Nc1ccc2c(c1)OCO2)NC1CCN(c2ccnc(Nc3ccc(F)cc3)n2)C1 (stereo not shown)', '%', 36),
  ('Fc1cc(Cl)ccc1Nc1ccnc2cc(I)ccc12', '%', 32),
  ('Cc1c(Cn2ccn3c(=O)cc(N4CCOCC4)nc23)cccc1C(F)(F)F', '%', 0),
  ('Cc1ccc(NC(=O)Nc2cc(C(C)(C)C)nn2-c2ccccc2)cc1', '%', 23),
  ('Cl.NC(=O)c1cccc(Nc2nccc(Nc3ccc(Oc4cccc(Cl)c4)c(Cl)c3)n2)c1', '%', 0),
  ('Nc1ncnc2[nH]c(-c3ccccc3)nc12', '%', 0),
  ('COC(=O)c1c(-c2ccccc2)c2cc(C(=O)O)ccc2c(=O)n1Cc1ccccc1', '%', 18),
  ('Cl.O=C(Nc1cccc(-c2nn3ncccc3c2-c2ccnc(Nc3cccnc3)n2)c1)c1c(F)cccc1F', '%', 28),
  ('CC(=O)Nc1nc2cnc(Nc3cc(NC(=O)c4cccc(CCC#N)c4)ccc3C)nc2s1', '%', 19),
  ('CS(=O)(=O)c1ccc(-c2nc3n(c2-c2ccncc2)CCC3)cc1', '%', 1);

The origin of these recorded values is paper PMC5540273.
